System: SNB-19 CNS
PROTOCOL DETAILS: NCI-60 one-dose screen, 48 h
RUN CONDITIONS: 10 µM unless noted
Compounds without any hit were thinned out: in the full panel of roughly 83,000, 20% have a hit. Active and inactive are the calls of the source. How the source made its calls: active means growth percent below 10; inactive means the rest.
Give one outcome, nothing more. List: 1 = active, 0 = inactive

[
  {
    "COMPOUND": "O=C(NC(Cc1cn(Cc2ccccc2)cn1)C(=O)O)OCC1c2ccccc2-c2ccccc21 (stereo not drawn)",
    "LABEL": 0
  },
  {
    "COMPOUND": "CC1(C)C(=O)CC[C@]2(C)[C@H]3C(=O)C=C4[C@@H]5C[C@@](C)(C(=O)NCCNCCN)CC[C@]5(C)CC[C@@]4(C)[C@]3(C)CC[C@@H]12",
    "LABEL": 0
  }
]

Per the records of this test, what outcome belongs to `CN(C)c1ccc(N=C2C=CC(=O)C=C2)cc1` ?
0

Identify the outcome logged in this assay for the compound shown: `CN(C)c1ccc(-c2ccc(-c3ccc(C(=N)N)c(F)c3)s2)cc1`
1

Check the results log: what was the call for `COc1ccc(/C=C(\C#N)c2cc3ccccc3n2C(C)=O)cc1` ?
0

Test call for this compound, please: `COc1cccc(-c2nn(-c3ccccc3)cc2-c2ccnc(NCCNS(=O)(=O)c3ccc(Cl)cc3)c2)c1`
0

Assay result, entry `Cc1cc(N2CCCCC2)nc(N(CCCNc2ccnc3cc(Cl)ccc23)Cc2ccco2)n1` — outcome?
0

Dear all, I need the recorded test outcome for `CC1(C)C(=O)/C(=C\c2ccco2)C[C@]2(C)[C@H]3CC[C@@H]4[C@@H](C(=O)/C=C/c5ccco5)CC[C@@]4(C)[C@]3(C)CC[C@@H]12` , thank you.
0
